target: E. coli IMPDH enzyme (Escherichia coli)
Sequence (P0ADG7 whole entry): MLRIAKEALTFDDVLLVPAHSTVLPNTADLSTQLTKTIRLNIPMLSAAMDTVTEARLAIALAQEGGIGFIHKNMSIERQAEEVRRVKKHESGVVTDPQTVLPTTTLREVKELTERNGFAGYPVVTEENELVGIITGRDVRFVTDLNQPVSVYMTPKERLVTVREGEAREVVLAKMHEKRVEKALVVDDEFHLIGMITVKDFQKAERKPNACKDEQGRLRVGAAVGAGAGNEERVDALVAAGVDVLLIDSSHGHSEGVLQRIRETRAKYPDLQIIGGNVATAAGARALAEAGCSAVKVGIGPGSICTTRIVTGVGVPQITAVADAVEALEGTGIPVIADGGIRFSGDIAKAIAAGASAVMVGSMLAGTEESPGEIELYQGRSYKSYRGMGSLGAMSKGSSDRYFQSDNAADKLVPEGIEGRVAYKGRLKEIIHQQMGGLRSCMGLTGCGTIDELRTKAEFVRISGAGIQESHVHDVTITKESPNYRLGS
assay-method-text: IMPDH Activity Inhibition Assay
Format: biochemical
run-conditions: percent remaining activity of E. coli IMPDH enzyme at 10 μM inhibitor (I) and 55 nM enzyme (E)
Measured activity at 10 µM accompanies every entry in the list below.

molecule | u | activity at 10 µM
COc1cc2ccccc2cc1C(=O)Nc1nc(-c2c(OC)ccc3ccccc23)cs1 [Compound 9] | % | 100
Cc1cccc(NC(=O)c2ccc3cc(C(=O)Nc4cccc(C)n4)ccc3c2)n1 [Compound 8] | % | 87
O=C(Nc1nncs1)c1ccc2cc(C(=O)Nc3nncs3)ccc2c1 [Compound 12] | % | 100
O=C(Nc1nccs1)c1ccc2cc(C(=O)Nc3nccs3)ccc2c1 [Compound 11] | % | 97
COc1ccc(-c2csc(NC(=O)c3cc4ccccc4cc3OC)n2)cc1OC [Compound 10] | % | 73
